Experiment: In-vivo radioactivity distribution experiment using normal mice (Example 2)
Settings: normal mice, intravenous, 60 min; Example 2 numbering
I'd be grateful if you could share measured In-vivo radioactivity distribution: pancreas for these entries.

Recorded result, CN(C)c1ccc(C=CC(=O)c2ccc(I)s2)cc1 , In-vivo radioactivity distribution: pancreas: 1.86 (0.27) percent of the dose/g

Recorded result, CNc1ccc(C=CC(=O)c2ccc(I)s2)cc1 , In-vivo radioactivity distribution: pancreas: 1.76 (0.40) percent of the dose/g

Recorded result, CN(C)c1ccc(C(=O)/C=C/c2ccc(I)cc2)cc1 , In-vivo radioactivity distribution: pancreas: 0.84 (0.22) percent of the dose/g

Recorded result, CNc1ccc(C(=O)/C=C/c2ccc(I)cc2)cc1 , In-vivo radioactivity distribution: pancreas: 0.78 (0.16) percent of the dose/g

---

Experiment: In-vivo radioactivity distribution experiment using normal mice (Example 2)
Conditions: normal mice, intravenous, 30 min; Example 2 numbering
I'd be grateful if you could share measured In-vivo radioactivity distribution: kidney for these entries.

Recorded result, CNc1ccc(C=CC(=O)c2ccc(I)s2)cc1 , In-vivo radioactivity distribution: kidney: 3.16 (0.80) percent of the dose/g

Recorded result, CN(C)c1ccc(C(=O)/C=C/c2ccc(I)cc2)cc1 , In-vivo radioactivity distribution: kidney: 4.10 (1.15) percent of the dose/g

Recorded result, CNc1ccc(C(=O)/C=C/c2ccc(I)cc2)cc1 , In-vivo radioactivity distribution: kidney: 3.92 (1.05) percent of the dose/g

Recorded result, CN(C)c1ccc(C=CC(=O)c2ccc(I)s2)cc1 , In-vivo radioactivity distribution: kidney: 4.31 (1.01) percent of the dose/g

---

Experiment: In-vivo radioactivity distribution experiment using normal mice (Example 2)
Details: normal mice, intravenous, 10 min; Example 2 numbering
experimental.readout: In-vivo radioactivity distribution: blood

Recorded result, CN(C)c1ccc(C=CC(=O)c2ccc(I)s2)cc1 [Compound 14 in Example 2] , In-vivo radioactivity distribution: blood: 3.58 (0.35) percent of the dose/g

Recorded result, CN(C)c1ccc(C(=O)/C=C/c2ccc(I)cc2)cc1 [Compound 10 in Example 2, 4-iodo-4′-dimethylaminochalcone] , In-vivo radioactivity distribution: blood: 1.89 (0.61) percent of the dose/g

Recorded result, CNc1ccc(C(=O)/C=C/c2ccc(I)cc2)cc1 [Compound 7 in Example 2, 4-iodo-4′-methylaminochalcone] , In-vivo radioactivity distribution: blood: 1.43 (0.30) percent of the dose/g

Recorded result, CNc1ccc(C=CC(=O)c2ccc(I)s2)cc1 [Compound 13 in Example 2] , In-vivo radioactivity distribution: blood: 3.68 (0.70) percent of the dose/g

---

Assay: In-vivo radioactivity distribution experiment using normal mice (Example 2)
Conditions: normal mice, intravenous, 30 min; Example 2 numbering
Experimental: Radioactive iodine labeling compounds were diluted with physiological saline containing 10% EtOH. To each of four or five 5-week-old male ddY mice (20 to 25 g) per group, […] of a labeled compound, [^125I]Compound 7, 10, 13, or 14 (0.2 to 0.4 mCi), was administered from the caudal vein. Animals were decapitated at 2, 10, 30, or 60 min, blood was collected, the major organs were isolated, and then weights and radioactivities thereof were measured.
I'd be grateful if you could share measured In-vivo radioactivity distribution: spleen for these entries.

Recorded result, CN(C)c1ccc(C(=O)/C=C/c2ccc(I)cc2)cc1 , In-vivo radioactivity distribution: spleen: 0.82 (0.15) percent of the dose/g

Recorded result, CNc1ccc(C(=O)/C=C/c2ccc(I)cc2)cc1 , In-vivo radioactivity distribution: spleen: 0.94 (0.48) percent of the dose/g

Recorded result, CN(C)c1ccc(C=CC(=O)c2ccc(I)s2)cc1 , In-vivo radioactivity distribution: spleen: 5.01 (1.72) percent of the dose/g

Recorded result, CNc1ccc(C=CC(=O)c2ccc(I)s2)cc1 , In-vivo radioactivity distribution: spleen: 2.06 (0.28) percent of the dose/g
